Cited source for all entries: patent US6573278B2

Structures can show the parent of a compound that is named as a salt.
measured endpoint: melting point (°C)
Answers are plain numbers, in °C.

Please report the recorded melting point for CCCCS(=O)(=O)Nc1ccc([S+]([O-])c2cccc3ccccc23)cc1 (centres unmarked) . 161

Can you handle CCCOS(=O)(=O)Nc1ccc(Oc2cccc3ccccc23)cc1 next? 95

Can you handle O=S(=O)(CCCCl)Nc1ccc(Oc2cccc3ccccc23)cc1 next? 115

Can you handle CCC(=O)Nc1ccc(Oc2ccc(NS(=O)(=O)Cc3ccccc3)cc2)c2ccccc12 next? 180

Can you handle CCCCCS(=O)(=O)Nc1ccc(Oc2cccc3c2CCN(CCCC)C3)cc1 next? 187

Please report melting point for every entry that follows.
1. CCCCS(=O)(=O)Nc1ccc(S(=O)(=O)c2cccc3ccccc23)cc1
2. CCCCCS(=O)(=O)Oc1ccc(Oc2cccc3c2CCNC3)cc1

[180, 143]

Please report melting point for every entry that follows.
1. CCCCC(=O)Nc1ccc(Oc2cccc3ccccc23)cc1
2. O=S(=O)(Cc1ccccc1)Nc1cccc(Oc2cccc3ccccc23)c1
3. Nc1ccc(Oc2ccc(NS(=O)(=O)Cc3ccccc3)cc2)c2ccccc12 (as salt: hydrochloride)

1. 80
2. 139.5
3. 252

Please report the recorded melting point for CCCCCS(=O)(=O)N(c1ccc(Oc2cccc3c2CCNC3)cc1)S(=O)(=O)CCCCC (as salt: hydrochloride) . 162

====

Biological target: CB1 receptor (rat cortex membranes) (Rattus norvegicus, UniProt P20272)
Sequence (P20272 whole entry): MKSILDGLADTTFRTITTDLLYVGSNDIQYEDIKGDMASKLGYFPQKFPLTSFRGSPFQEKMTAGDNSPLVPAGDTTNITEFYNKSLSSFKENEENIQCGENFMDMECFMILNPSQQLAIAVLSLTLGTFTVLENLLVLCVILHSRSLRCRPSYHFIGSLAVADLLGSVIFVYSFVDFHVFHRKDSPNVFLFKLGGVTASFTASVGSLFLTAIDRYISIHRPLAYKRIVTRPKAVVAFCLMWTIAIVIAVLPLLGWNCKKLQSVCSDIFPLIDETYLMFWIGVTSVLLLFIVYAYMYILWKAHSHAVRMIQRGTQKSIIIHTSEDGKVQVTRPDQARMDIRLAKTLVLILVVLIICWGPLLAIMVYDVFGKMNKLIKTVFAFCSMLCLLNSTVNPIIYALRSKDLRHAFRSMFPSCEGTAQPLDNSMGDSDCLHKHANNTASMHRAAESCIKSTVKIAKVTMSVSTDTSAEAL
measured endpoint: Ki (nM)
Numbers only, in nM.

These solved cases illustrate the format of a correct answer.
Please report the recorded Ki for O=S(=O)(Cc1ccccc1)Nc1ccc(Oc2cccc3ccccc23)nc1 [Example 33] . 420

Can you handle O=S(=O)(CCCCl)Nc1ccc(Oc2cccc3ccccc23)cc1 [Example 65] next? 250

Can you handle O=S(=O)(Cc1ccccc1)Nc1cccc(Oc2cccc3ccccc23)c1 [Example 51] next? 41

---
Please report the recorded Ki for CCCCS(=O)(=O)Nc1ccc(Oc2cccc3ccccc23)cc1 [Example 1] . 590

====

Target: rat CB1 receptor (Rattus norvegicus, UniProt P20272)
Construct: contains an open reading frame of 1419 base pairs which corresponds to a protein of 473 amino acids
Sequence (P20272 whole entry): as above
Test: CB1 luciferase reporter gene test (CHOluc9 cells, forskolin-stimulated)
Settings: CHOluc9 cells with rat CB1, forskolin
Exercise: state measured log10(IC50) for each of the molecules provided.
Scale: log10; quantity: IC50; unit before log: nM

These solved cases illustrate the format of a correct answer.
Please report the recorded log10(IC50) for O=S(=O)(Cc1ccccc1)Nc1cccc(Oc2cccc3ccccc23)c1 [Example 51] . -0.05

Can you handle O=S(=O)(CCCCl)Nc1ccc(Oc2cccc3ccccc23)cc1 [Example 65] next? 1.11

Can you handle O=S(=O)(Cc1ccccc1)Nc1ccc(Oc2cccc3ccccc23)nc1 [Example 33] next? 1.00

Please report log10(IC50) for every entry that follows.
1. CCCCCS(=O)(=O)Oc1ccc(Oc2cccc3ccccc23)cc1 [Example 99]
2. CCCCS(=O)(=O)Nc1ccc(Oc2cccc3ccccc23)cc1 [Example 1]

1: 0.46; 2: 1.18

====

Exercise: state measured melting point for each of the molecules provided.

Please report the recorded melting point for O=S(=O)(NCc1ccccc1)c1ccc(Oc2cccc3ccccc23)cc1 . 144 to 146 °C

Can you handle CCCC[S+]([O-])Nc1ccc(Oc2cccc3ccccc23)cc1 (stereo not drawn) next? 138 to 139 °C

Can you handle CCCCCS(=O)(=O)Nc1ccc(Oc2cccc3c2CC(CO)(CO)C3)cc1 next? 135 to 137 °C

Can you handle O=S(=O)(Cc1ccccc1)Nc1ccc(Oc2cccc3ccccc23)nc1 next? 161 to 162 °C

Can you handle CCCCS(=O)(=O)Nc1ccc(Oc2cccc3ccccc23)cc1 next? 108 to 109 °C

---
Please report the recorded melting point for CCCNS(=O)(=O)Nc1ccc(Oc2cccc3ccccc23)cc1 . 113 to 115 °C
